Hey, just so you know, these numbers are from patent US20060257938A1.

# test: Probe fluorescence ratio response to arachidonic acid relative to ADIFAB2
# Format: binding
# conditions-used: arachidonic acid; response relative to ADIFAB2
DR/DR AA listing for selected molecules.
Reply with the value as a number alone.

molecule | DR/DR AA
14Q 18S 73I 117W 72A (protein, listed as Rattus norvegicus, PEPTIDE (1)...(131) wild-type rat intestinal fatty acid binding protein) AFDGTWKVDRNENQEKFSEKMGINVVKRKLGAHDNLKLTITQEGNKFTVKESSNFRNIDVVFELGVDFAYSAIDGTELTGTWTMEGNKLVGKFKRVDNGKELIAVREISGNELIQTWTYEGVEAKRIFKKE | 0.878
23P1, 72A (protein, listed as Rattus norvegicus, PEPTIDE (1)...(131) wild-type rat intestinal fatty acid binding protein) AFDGTWKVDRNENYEKFMEKMGPNVVKRKLGAHDNLKLTITQEGNKFTVKESSNFRNIDVVFELGVDFAYSAADGTELTGTWTMEGNKLVGKFKRVDNGKELIAVREISGNELIQTYTYEGVEAKRIFKKE | 1.25
18I 31Y 73I 72A (protein, listed as Rattus norvegicus, PEPTIDE (1)...(131) wild-type rat intestinal fatty acid binding protein) AFDGTWKVDRNENYEKFIEKMGINVVKRKLYAHDNLKLTITQEGNKFTVKESSNFRNIDVVFELGVDFAYSAIDGTELTGTWTMEGNKLVGKFKRVDNGKELIAVREISGNELIQTYTYEGVEAKRIFKKE | 2.487
36V, 72A (protein, listed as Rattus norvegicus, PEPTIDE (1)...(131) wild-type rat intestinal fatty acid binding protein) AFDGTWKVDRNENYEKFMEKMGINVVKRKLGAHDNVKLTITQEGNKFTVKESSNFRNIDVVFELGVDFAYSAADGTELTGTWTMEGNKLVGKFKRVDNGKELIAVREISGNELIQTYTYEGVEAKRIFKKE | 1.026

Ask: Tell me measured DR/DR AA for 106L, 72A (protein, listed as Rattus norvegicus, PEPTIDE (1)...(131) wild-type rat intestinal fatty acid binding protein) AFDGTWKVDRNENYEKFMEKMGINVVKRKLGAHDNLKLTITQEGNKFTVKESSNFRNIDVVFELGVDFAYSAADGTELTGTWTMEGNKLVGKFKRVDNGKELIAVLEISGNELIQTYTYEGVEAKRIFKKE please.
Result: 0.383

Ask: Tell me measured DR/DR AA for 38A 106V 117A 72A (protein, listed as Rattus norvegicus, PEPTIDE (1)...(131) wild-type rat intestinal fatty acid binding protein) AFDGTWKVDRNENYEKFMEKMGINVVKRKLGAHDNLKATITQEGNKFTVKESSNFRNIDVVFELGVDFAYSAADGTELTGTWTMEGNKLVGKFKRVDNGKELIAVVEISGNELIQTATYEGVEAKRIFKKE please.
Result: 1.492

Ask: Tell me measured DR/DR AA for 18I 31M 55M 72A (protein, listed as Rattus norvegicus, PEPTIDE (1)...(131) wild-type rat intestinal fatty acid binding protein) AFDGTWKVDRNENYEKFIEKMGINVVKRKLMAHDNLKLTITQEGNKFTVKESSNMRNIDVVFELGVDFAYSAADGTELTGTWTMEGNKLVGKFKRVDNGKELIAVREISGNELIQTYTYEGVEAKRIFKKE please.
Result: 1.010

Ask: Tell me measured DR/DR AA for 38M, 72A (protein, listed as Rattus norvegicus, PEPTIDE (1)...(131) wild-type rat intestinal fatty acid binding protein) AFDGTWKVDRNENYEKFMEKMGINVVKRKLGAHDNLKMTITQEGNKFTVKESSNFRNIDVVFELGVDFAYSAADGTELTGTWTMEGNKLVGKFKRVDNGKELIAVREISGNELIQTYTYEGVEAKRIFKKE please.
Result: 1.850

Ask: Tell me measured DR/DR AA for 68L, 72A (protein, listed as Rattus norvegicus, PEPTIDE (1)...(131) wild-type rat intestinal fatty acid binding protein) AFDGTWKVDRNENYEKFMEKMGINVVKRKLGAHDNLKLTITQEGNKFTVKESSNFRNIDVVFELGVDLAYSAADGTELTGTWTMEGNKLVGKFKRVDNGKELIAVREISGNELIQTYTYEGVEAKRIFKKE please.
Result: 0.658

Ask: Tell me measured DR/DR AA for 14L 72G 117V (protein, listed as Rattus norvegicus, PEPTIDE (1)...(131) wild-type rat intestinal fatty acid binding protein) AFDGTWKVDRNENLEKFMEKMGINVVKRKLGAHDNLKLTITQEGNKFTVKESSNFRNIDVVFELGVDFAYSGADGTELTGTWTMEGNKLVGKFKRVDNGKELIAVREISGNELIQTVTYEGVEAKRIFKKE please.
Result: 0.873

Ask: Tell me measured DR/DR AA for 34R, 72A (protein, listed as Rattus norvegicus, PEPTIDE (1)...(131) wild-type rat intestinal fatty acid binding protein) AFDGTWKVDRNENYEKFMEKMGINVVKRKLGAHRNLKLTITQEGNKFTVKESSNFRNIDVVFELGVDFAYSAADGTELTGTWTMEGNKLVGKFKRVDNGKELIAVREISGNELIQTYTYEGVEAKRIFKKE please.
Result: 0.41
